These data points were gathered from patent US12662451B2.

- Study system: recombinant full-length WRN protein (1-1432) (Homo sapiens, UniProt Q14191)
- Construct: recombinant full-length WRN protein (1-1432)
- Sequence (Q14191 whole entry): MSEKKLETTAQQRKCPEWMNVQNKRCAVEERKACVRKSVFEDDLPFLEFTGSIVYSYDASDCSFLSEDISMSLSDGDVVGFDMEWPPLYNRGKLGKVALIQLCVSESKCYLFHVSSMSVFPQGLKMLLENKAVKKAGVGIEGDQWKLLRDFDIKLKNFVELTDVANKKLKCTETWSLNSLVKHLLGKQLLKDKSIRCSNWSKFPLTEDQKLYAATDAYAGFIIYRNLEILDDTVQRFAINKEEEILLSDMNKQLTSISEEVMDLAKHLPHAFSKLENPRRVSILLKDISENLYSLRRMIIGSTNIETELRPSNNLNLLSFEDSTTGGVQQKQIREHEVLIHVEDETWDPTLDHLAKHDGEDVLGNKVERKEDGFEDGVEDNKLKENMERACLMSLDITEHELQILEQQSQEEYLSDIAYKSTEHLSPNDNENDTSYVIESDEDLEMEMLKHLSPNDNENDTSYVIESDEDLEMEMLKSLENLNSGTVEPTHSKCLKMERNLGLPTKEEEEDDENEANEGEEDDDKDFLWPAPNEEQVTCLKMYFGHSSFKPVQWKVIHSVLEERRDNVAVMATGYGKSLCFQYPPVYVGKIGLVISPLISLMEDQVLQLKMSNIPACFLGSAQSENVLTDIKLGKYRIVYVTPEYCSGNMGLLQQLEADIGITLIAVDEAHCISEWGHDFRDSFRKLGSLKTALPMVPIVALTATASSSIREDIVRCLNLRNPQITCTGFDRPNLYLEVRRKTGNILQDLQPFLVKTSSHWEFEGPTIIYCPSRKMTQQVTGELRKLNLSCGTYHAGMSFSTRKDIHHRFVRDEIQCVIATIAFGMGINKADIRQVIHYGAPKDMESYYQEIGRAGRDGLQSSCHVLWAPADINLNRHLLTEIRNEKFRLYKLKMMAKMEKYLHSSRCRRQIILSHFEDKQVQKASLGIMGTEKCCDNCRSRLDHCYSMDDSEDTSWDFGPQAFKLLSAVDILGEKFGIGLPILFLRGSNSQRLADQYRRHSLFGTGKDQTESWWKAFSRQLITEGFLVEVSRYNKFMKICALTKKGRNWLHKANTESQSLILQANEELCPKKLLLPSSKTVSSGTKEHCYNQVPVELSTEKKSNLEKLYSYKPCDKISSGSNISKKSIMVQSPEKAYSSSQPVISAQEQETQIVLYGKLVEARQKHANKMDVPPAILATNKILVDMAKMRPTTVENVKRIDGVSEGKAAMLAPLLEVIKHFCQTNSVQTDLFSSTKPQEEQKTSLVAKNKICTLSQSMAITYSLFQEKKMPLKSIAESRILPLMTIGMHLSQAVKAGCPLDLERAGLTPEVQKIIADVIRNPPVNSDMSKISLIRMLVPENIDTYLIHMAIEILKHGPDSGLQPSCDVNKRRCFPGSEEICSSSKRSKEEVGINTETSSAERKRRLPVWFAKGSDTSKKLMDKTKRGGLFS
- Measurement notes: WRN unwinding activity, fluorogenic 384-well assay (Example A)
- Assay type: biochemical
- Applied conditions: WRN unwinding activity, 4 hr; Table 2; read-out: 4 hr UNW pIC50 (converted)
Recorded metric: IC50
Put your answer as a value accompanied by its unit after it.

Illustrative cases are given below, each with its answer.
| Molecule | IC50 |
| --- | --- |
| CC(=O)N1C[C@H](c2ccc(N(C)S(=O)(=O)c3ccc4c(c3)nc(C)n4C)cc2)[C@@H](C(=O)O)[C@H](C(=O)Nc2ccc(C(F)(F)F)cc2F)C1 (stereo in doubt) [Example 310] | 1.58 nM |
| Cc1nc2cc(S(=O)(=O)N(C)c3ccc([C@H]4C[C@@H](N)C[C@@H](C(=O)Nc5ccc(C(F)(F)F)cc5F)[C@@H]4C(=O)O)cc3)ccc2n1C (stereo in doubt) [Example 301] | 1.58 nM |
| Cc1nc2cc(S(=O)(=O)N(C)c3ccc([C@H]4CCC[C@@H](C(=O)Nc5ccc(C(F)(F)F)cc5F)[C@@H]4C(=O)O)cc3)ccc2n1C (single isomer, unassigned) [Example 83] | 2.51 nM |
| CN1CCC[C@@H](c2cccc(S(=O)(=O)N(C)c3ccc([C@H]4CCC[C@@H](COc5ccc(C(F)(F)F)cc5)[C@@H]4C(=O)O)cc3)c2)C1 (single isomer, unassigned) [Example 218] | 39.8 nM |

// query IC50 value for entry Cc1nc2cc(S(=O)(=O)N(C)c3ccc([C@@H]4C[C@H](OC[C@H]5CCOC5)C[C@H](C(=O)Nc5ccc(C(F)(F)F)cc5F)[C@H]4C(=O)O)cc3)ccc2n1C (stereo in doubt) [Example 318]
200 nM
